molecular target: PKC delta kinase (Homo sapiens, UniProt Q05655); assay: PKC delta kinase coupled-enzyme (NADH) Ki assay; conditions: 46 nM PKC delta, 150 μM ATP, 30° C., initial rate at 340 nM
Sequence (Q05655 whole entry): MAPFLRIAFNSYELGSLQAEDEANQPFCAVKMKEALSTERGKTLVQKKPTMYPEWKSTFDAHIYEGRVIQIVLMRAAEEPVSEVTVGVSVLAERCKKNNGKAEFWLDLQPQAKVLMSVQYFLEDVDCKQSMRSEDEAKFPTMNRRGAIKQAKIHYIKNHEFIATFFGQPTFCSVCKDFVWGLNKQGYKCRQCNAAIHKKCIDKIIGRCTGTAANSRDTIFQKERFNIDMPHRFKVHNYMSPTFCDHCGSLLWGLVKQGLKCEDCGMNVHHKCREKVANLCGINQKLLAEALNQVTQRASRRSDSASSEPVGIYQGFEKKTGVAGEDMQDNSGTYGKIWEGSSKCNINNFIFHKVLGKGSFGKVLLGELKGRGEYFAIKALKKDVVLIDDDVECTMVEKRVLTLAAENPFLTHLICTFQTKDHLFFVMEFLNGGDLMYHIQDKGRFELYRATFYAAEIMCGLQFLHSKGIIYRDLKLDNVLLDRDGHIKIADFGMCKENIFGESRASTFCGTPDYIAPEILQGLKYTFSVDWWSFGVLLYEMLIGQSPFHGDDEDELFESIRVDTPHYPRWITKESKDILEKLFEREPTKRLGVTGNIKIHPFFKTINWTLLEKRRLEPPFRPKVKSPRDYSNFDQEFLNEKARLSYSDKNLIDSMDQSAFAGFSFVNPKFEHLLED
pKi: −log10 of the molar value.
Attribute: pKi
MEASUREMENT_TYPE: pKi

[[record]]
compound = "OC[C@@H]1CN(c2nc(-c3n[nH]c4ncccc34)c(F)cc2Cl)CCN1"
value_reported = "> 7.30"

[[record]]
compound = "CC(C)C[C@@H]1CN(c2nc(-c3n[nH]c4ncccc34)c(C#N)cc2F)CCN1"
value_reported = "< 5.90"

[[record]]
compound = "OC1(C2CN(c3nc(-c4n[nH]c5ncccc45)c(F)cc3Cl)CCN2)CCC1 (centres unmarked)"
value_reported = "> 7.30"

[[record]]
compound = "OC1(C2CN(c3nc(-c4n[nH]c5ncccc45)c(F)cc3F)CCN2)CCC1 (centres unmarked)"
value_reported = "> 6.30"

[[record]]
compound = "CC(C)(O)[C@@H]1CN(c2nc(-c3n[nH]c4ncccc34)c(F)cc2Cl)CCN1"
value_reported = "> 7.30"


###

Ki, PKC theta kinase (Homo sapiens): measured values
MEASUREMENT_TYPE: Ki

[[record]]
compound = "OC1(C2CN(c3nc(-c4n[nH]c5ncccc45)c(F)cc3F)CCN2)CCC1 (stereo not shown) [Compound 2]"
value_reported = "< 0.001 µM"

[[record]]
compound = "OC[C@@H]1CN(c2nc(-c3n[nH]c4ncccc34)c(F)cc2Cl)CCN1 [Compound 9]"
value_reported = "< 0.05 µM"

[[record]]
compound = "CCC(O)(CC)[C@@H]1CN(c2nc(-c3n[nH]c4ncccc34)c(F)cc2F)CCN1 [Compound 3]"
value_reported = "< 0.001 µM"

[[record]]
compound = "CC(C)C[C@@H]1CN(c2nc(-c3n[nH]c4ncccc34)c(F)cc2Cl)CCN1 [Compound 8]"
value_reported = "< 0.05 µM"


###

Parameter 'readout' = Ki; parameter 'system' = UniProtKB Q04759.
MEASUREMENT_TYPE: Ki

[[record]]
compound = "CC(C)C[C@@H]1CN(c2nc(-c3n[nH]c4ncccc34)c(F)cc2F)CCN1"
measurement_type = "Ki"
value_reported = "< 50 nM"

[[record]]
compound = "OC1(C2CN(c3nc(-c4n[nH]c5ncccc45)c(F)cc3Cl)CCN2)CCC1 (stereo not drawn)"
measurement_type = "Ki"
value_reported = "< 1 nM"

[[record]]
compound = "OC[C@@H]1CN(c2nc(-c3n[nH]c4ncccc34)c(F)cc2F)CCN1"
measurement_type = "Ki"
value_reported = "< 500 nM"


###

The compounds listed here are annotated with their Ki.
molecular target: PKC delta kinase (Homo sapiens, UniProt Q05655); assay: PKC delta kinase coupled-enzyme (NADH) Ki assay; conditions: 46 nM PKC delta, 150 μM ATP, 30° C., initial rate at 340 nM
MEASUREMENT_TYPE: Ki

[[record]]
compound = "CCC(O)(CC)[C@@H]1CN(c2nc(-c3n[nH]c4ncccc34)c(F)cc2F)CCN1 [Compound 3]"
measurement_type = "Ki"
value_reported = "< 0.5 µM"

[[record]]
compound = "CC(C)(O)[C@@H]1CN(c2nc(-c3n[nH]c4ncccc34)c(F)cc2F)CCN1 [Compound 1]"
measurement_type = "Ki"
value_reported = "< 0.5 µM"

[[record]]
compound = "OC[C@@H]1CN(c2nc(-c3n[nH]c4ncccc34)c(F)cc2F)CCN1 [Compound 10]"
measurement_type = "Ki"
value_reported = "> 1.25 µM"

[[record]]
compound = "OC1([C@@H]2CN(c3nc(-c4n[nH]c5ncccc45)c(F)cc3Cl)CCN2)CC1 [Compound 4]"
measurement_type = "Ki"
value_reported = "< 0.05 µM"

